# target.of.assay: cloned human kappa receptor (Homo sapiens, UniProt P41145)
# Sequence (P41145 whole entry): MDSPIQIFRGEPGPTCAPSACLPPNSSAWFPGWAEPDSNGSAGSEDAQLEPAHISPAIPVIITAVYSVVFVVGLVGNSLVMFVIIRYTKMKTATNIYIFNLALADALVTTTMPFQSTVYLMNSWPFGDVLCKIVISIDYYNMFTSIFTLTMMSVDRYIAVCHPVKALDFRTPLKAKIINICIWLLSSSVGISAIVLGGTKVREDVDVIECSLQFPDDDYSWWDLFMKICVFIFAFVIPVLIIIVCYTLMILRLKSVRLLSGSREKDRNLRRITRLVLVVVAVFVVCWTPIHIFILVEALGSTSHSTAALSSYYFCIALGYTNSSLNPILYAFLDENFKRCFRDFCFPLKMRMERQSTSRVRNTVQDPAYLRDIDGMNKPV
# run.description: [3H]U69593 (agonist) binding to the cloned human kappa receptor
# particulars: Ki (nM) k (mg) [3H]U69,593
value.type: Ki (nM)
Your answer is read as nM, so omit the unit and give the number.

Example molecules with recorded Ki:
[[record]]
molecule = "COc1ccc2c(c1)[C@H](N(C)C(=O)C(c1ccccc1)c1ccccc1)[C@@H](N1CCCC1)CC2 (racemic)"
value_type = "Ki"
observed_measurement = 20

[[record]]
molecule = "CN(C(=O)Cc1ccc(Cl)c(Cl)c1)[C@H]1c2cc(N(CC(=O)O)CC(=O)O)ccc2CC[C@@H]1N1CCCC1 (racemic)"
value_type = "Ki"
observed_measurement = 0.68

[[record]]
molecule = "CN(C(=O)Cc1ccc(Cl)c(Cl)c1)[C@H]1c2cc(N(CC(=O)OC(C)(C)C)CC(=O)OC(C)(C)C)ccc2CC[C@@H]1N1CCCC1 (racemic)"
value_type = "Ki"
observed_measurement = 2.8

[[record]]
molecule = "CCOC(=O)CN(CC(=O)OCC)c1ccc2c(c1)[C@H](N(C)C(=O)Cc1ccc(Cl)c(Cl)c1)[C@@H](N1CCCC1)CC2 (racemic)"
value_type = "Ki"
observed_measurement = 0.68

[[record]]
molecule = "COc1cc2c(cc1S(=O)(=O)N(C)Cc1ccccc1)[C@H](N(C)C(=O)Cc1ccc(Cl)c(Cl)c1)[C@@H](N1CCCC1)CC2 (racemic)"
value_type = "Ki"
observed_measurement = 8


(Q) Request the reported Ki associated with CCOP(=O)(Nc1ccc2c(c1)[C@H](N(C)C(=O)Cc1ccc(Cl)c(Cl)c1)[C@@H](N1CCCC1)CC2)OCC (racemic)
(A) 0.6

(Q) Entry CN(C(=O)Cc1ccc(Cl)c(Cl)c1)[C@H]1c2cc(S(=O)(=O)N(C)Cc3ccccc3)ccc2CC[C@@H]1N1CCCC1 (racemic) please
(A) 40

(Q) Entry CCOP(=O)(CCNc1ccc2c(c1)[C@H](N(C)C(=O)Cc1ccc(Cl)c(Cl)c1)[C@@H](N1CCCC1)CC2)OCC (racemic) please
(A) 2.2

###

Structures can show the parent of a compound that is named as a salt.
This listing pairs compounds with measured melting point.

Example compounds with recorded melting point:
[[record]]
compound = "COC(=O)N1CCN(C(=O)Cc2ccccc2N(S(C)(=O)=O)S(C)(=O)=O)C(CN2CCCC2)C1 (racemic) (as salt: hydrochloride) [Example 1d]"
observed_measurement = "145 to 150 °C"

[[record]]
compound = "CN(C(=O)Cc1ccc(C(F)(F)F)cc1NCC(=O)O)[C@H](CN1CCCC1)c1ccccc1 (as salt: hydrochloride) [Example 3b]"
observed_measurement = "228 to 230 °C (dec.)"

[[record]]
compound = "CCOP(=O)(Nc1cccc([C@@H](CN2CCCC2)N(C)C(=O)Cc2ccc(Cl)c(Cl)c2)c1)OCC (as salt: hydrochloride) [Example 3g]"
observed_measurement = "140 to 142 °C"

[[record]]
compound = "CC(=O)N1CCN(C(=O)Cc2ccc(C(F)(F)F)cc2)C(CN2CCCC2)C1 (racemic) (as salt: hydrochloride) [(R,S-10b)]"
observed_measurement = "110 °C"

[[record]]
compound = "CCOC(=O)/C=C/C(=O)Nc1cc(Cl)c(Cl)cc1CC(=O)N(C)[C@H](CN1CCCC1)c1ccccc1 (as salt: hydrochloride) [Example 3y]"
observed_measurement = "165 to 167 °C (dec.)"


(Q) Request the reported melting point associated with COC(=O)N1CCN(C(=O)Cc2ccccc2[N+](=O)[O-])C(CN2CCCC2)C1 (racemic) (as salt: hydrochloride) [(R,S-9d)]
(A) 228 °C

(Q) Entry CNS(=O)(=O)c1cc(CC(=O)N(C)[C@H](CN2CCCC2)c2ccccc2)ccc1F.Cl [Example 3o] please
(A) 278 to 280 °C

(Q) Entry CN(C(=O)Cc1ccccc1NS(C)(=O)=O)[C@H](CN1CC[C@H](O)C1)c1ccccc1 (as salt: HCl) [Example 125] please
(A) 168 to 171 °C

(Q) Entry COC(=O)N1CCN(C(=O)Cc2ccc(C(F)(F)F)cc2NCC(=O)O)C(CN2CCCC2)C1 (racemic) [Example 1a] please
(A) 165 to 170 °C

(Q) Entry CNS(=O)(=O)c1cccc(CC(=O)N(C)[C@H](CN2CCCC2)c2ccccc2)c1.Cl [Example 3q] please
(A) > 250 °C (dec.)

(Q) Entry COC(=O)N1CCN(C(=O)Cc2c[nH]c3ccccc23)C(CN2CCCC2)C1 (racemic) (as salt: hydrochloride) [(R,S-9c)] please
(A) 143 °C

(Q) Entry CN(C(=O)Cc1cc(Cl)c(Cl)cc1[N+](=O)[O-])[C@@H]1c2ccccc2C[C@H]1N1CCCC1 (racemic) (as salt: HCl) please
(A) 284 to 287 °C

(Q) Entry CC(=O)N1CCN(C(=O)Cc2ccc(Cl)c(Cl)c2)[C@H](CN2CCCC2)C1.Cl [(R-3f)] please
(A) 153 to 155 °C

All figures here come from patent US20050020576A1.
